# recorded-conditions: in isopropanol, 283.17 K
quantity: solubility (mole fraction)

* c1nc[nH]n1 | 0.129

====

# recorded-conditions: in n-butyl acetate, 353.19 K
quantity: solubility (mole fraction)

* c1nc[nH]n1 | 0.136

====

# recorded-conditions: in n-propanol, 288.18 K
quantity: solubility (mole fraction)

• c1nc[nH]n1 = 0.135

====

# recorded-conditions: in n-propanol, 283.17 K
quantity: solubility (mole fraction)

• c1nc[nH]n1 = 0.12

====

# recorded-conditions: in methyl acetate, 283.27 K
quantity: solubility (mole fraction)

- c1nc[nH]n1: 0.0968

====

# recorded-conditions: in propylene glycol, 308.18 K
quantity: solubility (mole fraction)

* c1nc[nH]n1 | 0.353
